Hello, the source for this data is PubChem BioAssay, in case you need it.

# EXPERIMENTAL SYSTEM: E3 ubiquitin-protein ligase XIAP (Homo sapiens)
# EXPERIMENTAL PROTOCOL: XIAP binders, primary screen, biophysical, small-molecule microarray, fluorescence 635 nm (AID 1181);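 note: score merges 667 nm emission and signal to noise over triplicate slides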
# ASSAY SETUP: small-molecule microarray binding, higher = more signal
Using composite z-score as the sorting value, the categories are one (below -0.1), two (-0.1 to below 0.06), three (0.06 or more)

Use these answered entries as a reference point.
COMPOUND: COc1c(C)cc(-c2cc3c(c(-c4ccc(Oc5ccccc5)cc4)n2)[Si](C(C)C)(C(C)C)OC3)cc1C
LABEL VALUE: one

COMPOUND: O=C1O[C@H](c2ccccc2)[C@H](c2ccccc2)N2[C@H]1[C@@H](C(=O)N1CCN(c3ncccn3)CC1)[C@]1(C(=O)Nc3ccccc31)[C@H]2c1ccc(OCCO)cc1
LABEL VALUE: three

COMPOUND: [N-]=[N+]=NCc1ccccc1[C@H]1OC(c2ccc(OCCCO)cc2)=N[C@@]1(CCS(=O)(=O)c1ccccc1)C(=O)N1CCOCC1
LABEL VALUE: one

COMPOUND: CCCCCCc1nc(CCCc2cc3c(c(CCCCCC)n2)[Si](C(C)C)(C(C)C)OC3)cc2c1[Si](C(C)C)(C(C)C)OC2
LABEL VALUE: two

COMPOUND: O=C1C2C=CC(C(O)c3ccc(B(O)O)cc3)N(Nc3ccccc3)C2C(=O)N1c1ccccc1 (centres undefined)
LABEL VALUE: three

Lab log: COCCOC(=O)N1C(=O)[C@@]2(c3cc(C#CCC(C(=O)OC)C(=O)OC)ccc31)[C@H](c1ccccc1OCCO)N1[C@H](c3ccccc3)[C@H](c3ccccc3)OC(=O)[C@H]1[C@@H]2C(N)=O — assign composite z-score category
two

Please answer likewise for CC(c1ccccc1)C(O)C1C=CC2C(=O)NC(=O)C2N1Nc1ccccn1 (centres undefined)
two

Please answer likewise for O=C1O[C@@H](c2ccccc2)[C@@H](c2ccccc2)N2[C@@H](c3ccccc3OCCO)[C@]3(C(=O)Nc4ccc(C#CC5(O)CCCCCC5)cc43)[C@@H](C(=O)Nc3nc4ccccc4s3)[C@H]12
two

Please answer likewise for CCOc1cc(C(O)C2C=CC3C(=O)N(c4ccccc4)C(=O)C3N2Nc2ccc([N+](=O)[O-])cc2)ccc1O (centres undefined)
one

Please answer likewise for COc1ccc([Si](C)(C)[C@@H]2[C@@H](CCn3cc([C@H](O)c4ccccc4)nn3)O[C@]3(C(=O)N(Cc4ccc(N5C(=O)c6cccc7cccc5c67)cc4)c4ccccc43)[C@H]2C)cc1
one

Please answer likewise for COC(=O)[C@@]1(Cc2ccccc2)[C@H]2c3cc(C(=O)N(C)C)n(Cc4cc(C)n(C)n4)c3C[C@H]2CN1C(=O)c1ccccc1
three

###

# EXPERIMENTAL PROTOCOL: small-molecule binders of probe aLefty1, primary screen, biochemical, small-molecule microarray, 635/667 nm fluorescence (AID 1153);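 note: score merges spot fluorescence with signal-to-noise ratio from the scanned slide images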
# ASSAY SETUP: higher = more signal
MEASUREMENT KIND: composite z-score
Please state the value as a number alone, without comment.

Answered cases to consult:
MOLECULE: O=C(O)[C@@]1(Cc2ccccc2)N=C(c2ccc(OCCCO)cc2)O[C@H]1c1ccccc1
composite z-score: -0.251
//
MOLECULE: CN(C)CCCNC(=O)[C@@]1(Cc2ccccc2I)c2ccccc2C(=O)N(Cc2ccccc2C(F)(F)F)[C@H]1c1ccc(CO)cc1
composite z-score: -0.0536
//
MOLECULE: [N-]=[N+]=NCc1ccccc1C[C@]1(C(=O)O)N=C(c2ccc(OCCCO)cc2)O[C@H]1c1ccccc1
composite z-score: 0.0299
//
MOLECULE: COC(=O)C1=CC(CCCO)=CC(C2CC2)N(Cc2sc3ccccc3c2Cl)C=C1C(=O)OC (stereo not drawn)
composite z-score: 0.335
//
MOLECULE: CCC[C@@H]1C=C(C(=O)O)[C@H](c2ccc(C)cc2)N1S(=O)(=O)c1ccc(C)cc1
composite z-score: 0.114
//
MOLECULE: O=C1OCC=C[C@H]2OC34C=CCN(c5ccc(Cl)cc5)C(=O)[C@H]3N(CCCCCCO)C(=O)[C@@H]4[C@@H]12 (stereo partly drawn)
composite z-score: 0.135
//
MOLECULE: CC(=O)NCCCC[C@@H]1NC(=O)[C@@H]2C[C@H](C(=O)NCCCCCCNC(=O)CS)[C@H](c3ccc(O)cc3)N2C1=O
composite z-score: 0.0494

Now for another entry.
Fill in the blank: the reported composite z-score of COc1ccc(CCNC(=O)[C@@]2(c3ccc([N+](=O)[O-])cc3)CC(=O)N(CC34CC5CC(CC(C5)C3)C4)[C@@H]2c2ccc(CO)cc2)cc1 is ____.
0.155
